Recorded measurements of Dose.FC.LYZ.NS, one per entry
- System: ENR+CD organoids (ISC to Paneth cell differentiation)
- measurement_description: Primary screen: basal (non-stimulated) lysozyme secretion LYZ.NS, 2.5-D 384-well ENR+CD organoid differentiation
- Format: cell-based, mouse
- condition_info: primary screen; dose 2.00 uM; FC vs plate median
Write the answer as a number in log2 fold change, unit excluded.

C[C@](O)(COc1ccc(C#N)cc1)C(=O)Nc1ccc(C#N)c(C(F)(F)F)c1    0.036
O=c1cc(N2CCOCC2)oc2c1ccc1ccccc12    −0.058
CC(=O)c1c(C)c2cnc(Nc3ccc(N4CCNCC4)cn3)nc2n(C2CCCC2)c1=O.Cl [Palbociclib (PD-0332991) HCl]    −0.051
CC(C)CC(=O)Nc1[nH]nc2c1CN(C(=O)C1CCN(C)CC1)C2(C)C    −0.136
CN1C(=O)C(Cc2c[nH]c3ccccc23)NC1=S (stereo not drawn)    0.154

*Q* GET /values?readout=Dose.FC.LYZ.NS&item= CC(C)C[C@H](NC(=O)CNC(=O)c1cc(Cl)ccc1Cl)B(O)O
*A* −0.249

*Q* What would you report for CN(Cc1cnc2nc(N)nc(N)c2n1)c1ccc(C(=O)N[C@@H](CCC(=O)O)C(=O)O)cc1 [Methotrexate] ?
*A* −0.130

*Q* What would you report for COc1ccc(-c2nc3ccc(C4=NNC(=O)CC4C)cc3[nH]2)cc1 (stereo not drawn) ?
*A* 0.129

*Q* What would you report for CCc1cncnc1N1CCN(Cc2nc3ccc(C(F)(F)F)cc3[nH]2)CC1 ?
*A* 0.198
